Values were extracted from patent EP0109294A2.

Assay: in vivo
Parameters: species or system mice
Settings: mouse, sc, 100 mg/kg
QUANTITY_KIND: AUC at 2 h (ng·h/mL)
The reply should be a number in ng·h/mL, with the unit left off.

### Prompt Output AUC at 2 h of CN(C)CCn1nnnc1SCC1=C(C(=O)O)N2C(=O)[C@@H](NC(=O)Cc3csc(N)n3)[C@H]2SC1 [compound (II), reference compound]
### Response 38800

###

Experiment: in vivo
Parameters: species or system mice
Details: mouse, po, 100 mg/kg, 120 min
Where a name gives a salt, the structure may show the parent alone.
Response field label takes label 1 when AUC is strictly below 30000 ng·h/mL and label 0 in all other cases.

INSERT INTO measurements (compound, group_label) VALUES
  ('CN(C)CCn1nnnc1SCC1=C(C(=O)OCOC(=O)C(C)(C)C)N2C(=O)[C@@H](NC(=O)Cc3csc(N)n3)[C@H]2SC1 [Compound A, pivaloyloxymethyl ester of compound (II), reference compound]', 'label 1'),
  ('CC(OC(=O)CC1CCCCC1)OC(=O)C1=C(CSc2nnnn2CCN(C)C)CS[C@@H]2[C@H](NC(=O)Cc3csc(N)n3)C(=O)N12 (some centres unmarked) [Compound No. 2, dihydrochloride]', 'label 0');

Now turn to the next compound.
### Prompt Check if AUC falls below 30000 ng·h/mL for CC(OC(=O)CC1CCCC1)OC(=O)C1=C(CSc2nnnn2CCN(C)C)CS[C@@H]2[C@H](NC(=O)Cc3csc(N)n3)C(=O)N12 (some centres unmarked) [Compound No. 6, dihydrochloride] .
### Response label 0

###

Assay: in vivo
Parameters: species or system mice
Details: mouse, po, 100 mg/kg, 15 min
Where a name gives a salt, the structure may show the parent alone.
QUANTITY_KIND: Plasma level of non-ester 0.25 hr (ng/mL)
Reply numerically in ng/mL, unit not repeated.

Take a look at these entries with their results.
INSERT INTO measurements (molecule, reported) VALUES
  ('CC(OC(=O)C1=C(CSc2nnnn2CCN(C)C)CS[C@@H]2[C@H](NC(=O)Cc3csc(N)n3)C(=O)N12)OC(=O)C1CCCC1 (some centres unmarked) [Compound No. 8, dihydrochloride]', 42500),
  ('CC(OC(=O)C1=C(CSc2nnnn2CCN(C)C)CS[C@@H]2[C@H](NC(=O)Cc3csc(N)n3)C(=O)N12)OC(=O)C1CCCCC1 (some centres unmarked) [Compound No. 4, dihydrochloride]', 43600),
  ('CC(OC(=O)CC1CCCC1)OC(=O)C1=C(CSc2nnnn2CCN(C)C)CS[C@@H]2[C@H](NC(=O)Cc3csc(N)n3)C(=O)N12 (some centres unmarked) [Compound No. 6, dihydrochloride]', 23200),
  ('CN(C)CCn1nnnc1SCC1=C(C(=O)OCOC(=O)C(C)(C)C)N2C(=O)[C@@H](NC(=O)Cc3csc(N)n3)[C@H]2SC1 [Compound A, pivaloyloxymethyl ester of compound (II), reference compound]', 21000);

Consider now this further molecule.
### Prompt Give the reported Plasma level of non-ester 0.25 hr for this molecule. CC(OC(=O)CC1CCCCC1)OC(=O)C1=C(CSc2nnnn2CCN(C)C)CS[C@@H]2[C@H](NC(=O)Cc3csc(N)n3)C(=O)N12 (some centres unmarked) [Compound No. 2, dihydrochloride]
### Response 43900
